Values compiled from the NIST ThermoML archive (doi:10.1021/je400004j).

test: xn = mol fraction of the nth substance listed; settings: 298.15 K, Ring tensiometer, x1 = 0.6
Each item that follows carries a reported surface tension liquid-gas.
Field: numeric (mN/m). Do not append units.

Consider the reported surface tension liquid-gas for these molecules:
1. CCOP(=O)([O-])OCC.CCn1cc[n+](CC)c1 [1,3-diethyl-1H-imidazol-3-ium diethyl phosphate] + O
36.2
2. CCOP(=O)([O-])OCC.CCn1cc[n+](CC)c1 [1,3-diethyl-1H-imidazol-3-ium diethyl phosphate] + CO
34

### Prompt Identify the reported surface tension liquid-gas for the following entry. CCCCn1cc[n+](CC)c1.CCOP(=O)([O-])OCC [1-butyl-3-ethyl-1H-imidazol-3-ium diethyl phosphate] + O
### Response 32.5

### Prompt Identify the reported surface tension liquid-gas for the following entry. CCn1cc[n+](C)c1.COP(=O)([O-])OC [1-ethyl-3-methylimidazolium dimethylphosphate] + O
### Response 44.2

### Prompt Identify the reported surface tension liquid-gas for the following entry. CCCCOP(=O)([O-])OCCCC.CCCCn1cc[n+](C)c1 [1-butyl-3-methylimidazolium dibutyl phosphate] + CCO
### Response 27.3

### Prompt Identify the reported surface tension liquid-gas for the following entry. CCn1cc[n+](C)c1.COP(=O)([O-])OC [1-ethyl-3-methylimidazolium dimethylphosphate] + CO
### Response 37

### Prompt Identify the reported surface tension liquid-gas for the following entry. CCOP(=O)([O-])OCC.CCn1cc[n+](CC)c1 [1,3-diethyl-1H-imidazol-3-ium diethyl phosphate] + CCO
### Response 29.6

---

Each item that follows carries a reported surface tension liquid-gas.
assay: xn = mol fraction of the nth substance listed; conditions: 298.15 K, Ring tensiometer, x1 = 0.4
Field: numeric (mN/m). Do not append units.

1. CCCCn1cc[n+](CC)c1.CCOP(=O)([O-])OCC [1-butyl-3-ethyl-1H-imidazol-3-ium diethyl phosphate] + CCO
26.1

### Prompt Identify the reported surface tension liquid-gas for the following entry. CCOP(=O)([O-])OCC.CCn1cc[n+](CC)c1 [1,3-diethyl-1H-imidazol-3-ium diethyl phosphate] + CCO
### Response 26.3

### Prompt Identify the reported surface tension liquid-gas for the following entry. COP(=O)([O-])OC.Cn1cc[n+](C)c1 [1,3-dimethylimidazolium dimethylphosphate] + CCO
### Response 28.2

### Prompt Identify the reported surface tension liquid-gas for the following entry. CCOP(=O)([O-])OCC.CCn1cc[n+](C)c1 [1-ethyl-3-methylimidazolium diethyl phosphate] + O
### Response 37.8

### Prompt Identify the reported surface tension liquid-gas for the following entry. CCOP(=O)([O-])OCC.CCn1cc[n+](CC)c1 [1,3-diethyl-1H-imidazol-3-ium diethyl phosphate] + CO
### Response 31.6

### Prompt Identify the reported surface tension liquid-gas for the following entry. CCCCn1cc[n+](C)c1.COP(=O)([O-])OC [1-butyl-3-methyl-1H-imidazolium dimethylphosphate] + CCO
### Response 26.9

### Prompt Identify the reported surface tension liquid-gas for the following entry. CCCCn1cc[n+](C)c1.COP(=O)([O-])OC [1-butyl-3-methyl-1H-imidazolium dimethylphosphate] + CO
### Response 32.3

---

test: xn = mol fraction of the nth substance listed; settings: 298.15 K, Ring tensiometer, x1 = 0.5
Each item that follows carries a reported surface tension liquid-gas.
Field: numeric (mN/m). Do not append units.

Consider the reported surface tension liquid-gas for these compounds:
1) CCOP(=O)([O-])OCC.CCn1cc[n+](C)c1 [1-ethyl-3-methylimidazolium diethyl phosphate] + O
37.5
2) CCCCn1cc[n+](C)c1.COP(=O)([O-])OC [1-butyl-3-methyl-1H-imidazolium dimethylphosphate] + O
38.8

### Prompt Identify the reported surface tension liquid-gas for the following entry. CCCCOP(=O)([O-])OCCCC.CCCCn1cc[n+](C)c1 [1-butyl-3-methylimidazolium dibutyl phosphate] + CO
### Response 28.8

### Prompt Identify the reported surface tension liquid-gas for the following entry. CCn1cc[n+](C)c1.COP(=O)([O-])OC [1-ethyl-3-methylimidazolium dimethylphosphate] + CCO
### Response 29.5

---

assay: xn = mol fraction of the nth substance listed; conditions: 298.15 K, Ring tensiometer, x1 = 0.8
Readout label: surface tension liquid-gas (mN/m)
Field: numeric (mN/m). Do not append units.

Consider the reported surface tension liquid-gas for these compounds:
1. COP(=O)([O-])OC.Cn1cc[n+](C)c1 [1,3-dimethylimidazolium dimethylphosphate] + CO
43.6
2. CCCCn1cc[n+](CC)c1.CCOP(=O)([O-])OCC [1-butyl-3-ethyl-1H-imidazol-3-ium diethyl phosphate] + CCO
30.5

Okay, next one:
### Prompt Identify the reported surface tension liquid-gas for the following entry. CCOP(=O)([O-])OCC.CCn1cc[n+](C)c1 [1-ethyl-3-methylimidazolium diethyl phosphate] + O
### Response 37.2

---

experiment: xn = mol fraction of the nth substance listed; details: 298.15 K, Ring tensiometer, x1 = 0.5
Readout label: surface tension liquid-gas (mN/m)
Field: numeric (mN/m). Do not append units.

Consider the reported surface tension liquid-gas for these compounds:
1. CCCCOP(=O)([O-])OCCCC.CCCCn1cc[n+](C)c1 [1-butyl-3-methylimidazolium dibutyl phosphate] + CCO
26.6
2. CCCCn1cc[n+](C)c1.COP(=O)([O-])OC [1-butyl-3-methyl-1H-imidazolium dimethylphosphate] + CCO
28.5
3. CCOP(=O)([O-])OCC.CCn1cc[n+](CC)c1 [1,3-diethyl-1H-imidazol-3-ium diethyl phosphate] + CO
33
4. CCCCn1cc[n+](CC)c1.CCOP(=O)([O-])OCC [1-butyl-3-ethyl-1H-imidazol-3-ium diethyl phosphate] + O
32.6
5. CCOP(=O)([O-])OCC.CCn1cc[n+](C)c1 [1-ethyl-3-methylimidazolium diethyl phosphate] + CO
33.5
6. CCOP(=O)([O-])OCC.CCn1cc[n+](C)c1 [1-ethyl-3-methylimidazolium diethyl phosphate] + CCO
28.2

### Prompt Identify the reported surface tension liquid-gas for the following entry. CCCCn1cc[n+](CC)c1.CCOP(=O)([O-])OCC [1-butyl-3-ethyl-1H-imidazol-3-ium diethyl phosphate] + CO
### Response 30.9

### Prompt Identify the reported surface tension liquid-gas for the following entry. CCn1cc[n+](C)c1.COP(=O)([O-])OC [1-ethyl-3-methylimidazolium dimethylphosphate] + CO
### Response 35.6

### Prompt Identify the reported surface tension liquid-gas for the following entry. COP(=O)([O-])OC.Cn1cc[n+](C)c1 [1,3-dimethylimidazolium dimethylphosphate] + O
### Response 49.8

### Prompt Identify the reported surface tension liquid-gas for the following entry. CCOP(=O)([O-])OCC.CCn1cc[n+](CC)c1 [1,3-diethyl-1H-imidazol-3-ium diethyl phosphate] + O
### Response 36.4

### Prompt Identify the reported surface tension liquid-gas for the following entry. COP(=O)([O-])OC.Cn1cc[n+](C)c1 [1,3-dimethylimidazolium dimethylphosphate] + CO
### Response 38.1

### Prompt Identify the reported surface tension liquid-gas for the following entry. CCn1cc[n+](C)c1.COP(=O)([O-])OC [1-ethyl-3-methylimidazolium dimethylphosphate] + O
### Response 45.1

### Prompt Identify the reported surface tension liquid-gas for the following entry. COP(=O)([O-])OC.Cn1cc[n+](C)c1 [1,3-dimethylimidazolium dimethylphosphate] + CCO
### Response 30.5

### Prompt Identify the reported surface tension liquid-gas for the following entry. CCCCOP(=O)([O-])OCCCC.CCCCn1cc[n+](C)c1 [1-butyl-3-methylimidazolium dibutyl phosphate] + O
### Response 29.2

---

test: xn = mol fraction of the nth substance listed; settings: 298.15 K, Ring tensiometer, x1 = 0.5
Readout label: surface tension liquid-gas (mN/m)
Field: numeric (mN/m). Do not append units.

Consider the reported surface tension liquid-gas for these compounds:
1. CCCCn1cc[n+](CC)c1.CCOP(=O)([O-])OCC [1-butyl-3-ethyl-1H-imidazol-3-ium diethyl phosphate] + CCO
27.6
2. CCCCn1cc[n+](C)c1.COP(=O)([O-])OC [1-butyl-3-methyl-1H-imidazolium dimethylphosphate] + CO
33.8

Okay, next one:
### Prompt Identify the reported surface tension liquid-gas for the following entry. CCOP(=O)([O-])OCC.CCn1cc[n+](CC)c1 [1,3-diethyl-1H-imidazol-3-ium diethyl phosphate] + CCO
### Response 27.8

---

assay: xn = mol fraction of the nth substance listed; conditions: 298.15 K, Ring tensiometer, x1 = 0.8
Each item that follows carries a reported surface tension liquid-gas.
Field: numeric (mN/m). Do not append units.

Consider the reported surface tension liquid-gas for these molecules:
1. CCn1cc[n+](C)c1.COP(=O)([O-])OC [1-ethyl-3-methylimidazolium dimethylphosphate] + O
44.5
2. CCn1cc[n+](C)c1.COP(=O)([O-])OC [1-ethyl-3-methylimidazolium dimethylphosphate] + CO
40.6
3. CCOP(=O)([O-])OCC.CCn1cc[n+](C)c1 [1-ethyl-3-methylimidazolium diethyl phosphate] + CO
37.2

Okay, next one:
### Prompt Identify the reported surface tension liquid-gas for the following entry. CCCCOP(=O)([O-])OCCCC.CCCCn1cc[n+](C)c1 [1-butyl-3-methylimidazolium dibutyl phosphate] + O
### Response 29.4
